Reported abundance fitness values for the following variants.
B1: Peroxisome proliferator-activated receptor delta, residues 71 to 145; numbered along this chain, Q03181 (parent)
chain: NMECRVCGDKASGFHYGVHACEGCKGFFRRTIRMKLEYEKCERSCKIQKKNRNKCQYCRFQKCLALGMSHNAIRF

- Variants of: B1
- Test method notes: abundance fitness (aPCA) (normalised: wild type 0, dead -1); higher = more abundant; growth selection in yeast, the domain comes from the species named
- Assay conditions: Homo sapiens

NMECRVCGQKASGFHYGVHACEGCKGFFRRTIRMKLEYEKCERSCKIQKKNRNKCQYCRFQKCLALGMSHNAIRF [D9Q]    -0.374
NMICRVCGDKASGFHYGVHACEGCKGFFRRTIRMKLEYEKCERSCKIQKKNRNKCQYCRFQKCLALGMSHNAIRF [E3I]    -0.044
NMECRVCGDKASGFHYGVHACKGCKGFFRRTIRMKLEYEKCERSCKIQKKNRNKCQYCRFQKCLALGMSHNAIRF [E22K]    -0.297
NMECRVCGDKASGFHYGVHACEGCKGFFRRTIRMKLEYEKCERSCKIQKKNRNKCQSCRFQKCLALGMSHNAIRF [Y57S]    -0.35
NMECRVCGDKASGFHYGVHACEGCKGFFRRTIRMKLEYEKCERSCKIQKKNRNKCQYCRFQKSLALGMSHNAIRF [C63S]    -0.905

// query abundance fitness value for entry NMECRVCGDKASGFHYGQHACEGCKGFFRRTIRMKLEYEKCERSCKIQKKNRNKCQYCRFQKCLALGMSHNAIRF [V18Q] -0.39

Query (variant): NMECRVCGKKASGFHYGVHACEGCKGFFRRTIRMKLEYEKCERSCKIQKKNRNKCQYCRFQKCLALGMSHNAIRF [D9K] ; field requested: abundance fitness -0.548

Query (variant): NMQCRVCGDKASGFHYGVHACEGCKGFFRRTIRMKLEYEKCERSCKIQKKNRNKCQYCRFQKCLALGMSHNAIRF [E3Q] ; field requested: abundance fitness -0.059

Reported abundance fitness for NMECRVCGDKASGFRYGVHACEGCKGFFRRTIRMKLEYEKCERSCKIQKKNRNKCQYCRFQKCLALGMSHNAIRF [H15R] : what is it? -0.595
